TEST SUMMARY: yeast display, Sf9 membrane polyspecificity reagent, FACS + sequencing; frameworks hold sequencing errors
QUANTITY: polyreactivity (PSR sort gate)

QVQLVESGGGLVQAGGSLRLSCAASGLISRRNAMGWYRQAPGKERELVAAISTGSSTNYADSVKGRFTISRDNAKNTVYLQMNSLKPEDTAVYYCAATQYWWSTLGIRDDYWGQGSQVTVSS	low polyreactivity
QVQLVESGGGLVQAGGSLRLTCAASGSIIYTNGMGWYRQAPAKERELVAAISVSGGSTYYADSVKGRFTITRDNEKNTVYLQMNSLKPEDTAVYFCNAKDWYFYRYDYWGQGTQVTVSS	low polyreactivity
QVQLVESGGGLVQAGGSLRLSCAASGSTFGPYAMGWYRQAPGKERELVATINSSGSTNYADSVKGRFTISRDNAKNTVYLQMNSLKPEDTAVYYCATLHYYYWYDYWGQGTQVTVSS	low polyreactivity
QVQLVESGGGLVQAGGSLRLSCAASGFTFWDNAMGWYRQAPGKERELVAAISRRGGTTYYADSVKVRFTISRDNAKNTVYLQMNSLKPEDTAVYYCNKAFSLQIYATGMGYWGQGTQVTVSS	high polyreactivity
QVQLVESGGGLVQAGGSLRLSCAASGSTCTGYTMGWYRQAPGNERELVAAITYRGGSTYYADSVKGRFTISRDNAKNTVYLQKNSLKPEETAVYYCAAVPEYYEYSPYDYWGQGTQVTVSS	low polyreactivity

// query Can you look up the measured polyreactivity (PSR sort gate) of `QVQLVESGGGLVQAGGSLRLSCAASGSTFVDYAMGWYRQAPGKERELVAGINGSGGSTYYADSVKGRFTISRDNAKNTVYLQMNSLKPEDTAVYYCAKDGSNRLALPAWDYNYWGQGTQVTVSS` for me?
// result low polyreactivity

// query Can you look up the measured polyreactivity (PSR sort gate) of `QVQLVESGGGLVQAGGSLRLSCAASGSIFGKYVMGWYRQAPGKERELVAALTFGGGSTYYADSVKGRFTISRDNAKNTVSLQMNTLKPEETAVYYCAAKSYDDRLYRRPRDYWGQGTQVTLSS` for me?
// result high polyreactivity

// query Can you look up the measured polyreactivity (PSR sort gate) of `QVKLVESGGGLVQAGGSLRLSCAASGSTYHSNAMGWYRRAHGKEMEFVASISIGGSTNYADSVKGRYTISRDNAKNTVYLQMNSLKAEDTAVYYSATEPNPRRPRVDYDYWGQGTQVTVSS` for me?
// result low polyreactivity

* * *

TEST SUMMARY: yeast display, Sf9 membrane polyspecificity reagent, FACS + sequencing; frameworks hold sequencing errors
QUANTITY: polyreactivity (PSR sort gate)

Sample records with polyreactivity (PSR sort gate):
QVQLVESGGGLVQAGGSLRLSCAASGYTFHGNAMGWYRQAPGKERELVAAISRNGGRTYYADSVKGRFTISRDNAKNTVYLQMHSLKPEDTAVYYCNASKFYGVRFKYDYWGQGTQVTVSS	high polyreactivity
QVQLVESGGGLVQAGGSLRLICAASGRIFRANARGWYRQAPGKERELVATIRNSGGITYYADSVKGRFTISRDHAKNTVYLQMNSLKPEDTALYYCGNLGRYCYDYWGQGTQVTVSS	high polyreactivity
QVQLVESGGGLVQAGGSLRLSCAASGRTFPYYAMGWYRQATGKERELVARIRSDGSTNYADSVKGRFTISRDNANNTVYLQMNSLKPEDTAVYYCAGKPYPSLFFHYGYWGQCTQVTVSS	low polyreactivity
QVQLVESGGGLVQAGGSLRLSCAASGSIFGGNDMGWSRQAPGKERAWVAAITATSGSTYYADSVKGRFTISRDNAKNTVYLQMNSLKPEDTAVYYCAAKPVGTYSRPHDYWGQGTQVTVSS	low polyreactivity

Lab note: next sequence to report on.
// query Can you look up the measured polyreactivity (PSR sort gate) of `QVQLVESGGGVVQAGGSLRLSCAASGFIFYQYAMGWYRQAPGKERELVAAITSRGGRTYYADSVKGRFTISRDNAKNTVYLQMNSLKPEDTAVYYCAVRKASDYYYWGQGTQVTVSS` for me?
// result high polyreactivity

* * *

TEST SUMMARY: yeast display, Sf9 membrane polyspecificity reagent, FACS + sequencing; frameworks hold sequencing errors
QUANTITY: polyreactivity (PSR sort gate)

QVQLVESGGGLLQAGGSLRLSCAASGITFYRNAMGWYRQAPGKERELVAAITWSGGSTYYADSVKGRFTISRDYAKNTVYLQMNSLKPEDSAVYYCNADYRHRYYWGQGTQVTVSS	high polyreactivity
QVQLVESGGGLVQAGGSLRLSCAASGRIFGNYAMGWYRQAPGKERELVASISRRGGSTYYADSVKGRFTISRDNAKNTVYLQMIRLKPEDTAVYYCATLRGRLRFGYDYWGQGTQVTVSS	high polyreactivity
QGQLVESGGGLVQAGGSLRLSCAASGRTFRGNTMGWYRQAPGKERELVATISSRSSSTYYADSVKGRFTISRDNAKNTVYLQMHSLKPEDTAVYYCAVTNPLVRSGYSRYFGRYDYWGQGTQVTVSS	high polyreactivity
QVQLVESGGGLVQAGGSLRLSCAASGRTFRRYAMGWYRQAPGKERELVAAITYRGGSTYYADSVKGRFTISRDNAKNTVYLQMNSLKPEDTAVYYCNKQGNGQLGTTQGRYDYWGQGTQVTVSS	high polyreactivity

* * *

TEST SUMMARY: yeast display, Sf9 membrane polyspecificity reagent, FACS + sequencing; frameworks hold sequencing errors
QUANTITY: polyreactivity (PSR sort gate)

QVQLVESGGGLVQAGGSLRLTCAASGNIFISYAMGWYRQAPGKEMELVAAISRSGGSTYYADSVKGRFTISRDNEKNSVYLLMNSLKPEDTAVYYCAAYIGQGRYGSWGQGTQVNVSS	high polyreactivity
QVQLVESGGGLVQAGGSLRLSCAASGSIFAYYAMGWYRQAPGKERELVAAISRSGVSTYYADSVKGRFTISRDNAKNTVYLQMNSLKPEDTAVYYCAARWRSGFTSGDYWGQGTQVTVSS	low polyreactivity
QVQLVESGGGLVQAGGSLRLSCAASGRIFSQYAMGWYRQAPGKEREFVASISRSGGRTYYADSVKGRFTISRDNAKNTVYLQMNSLKPEDTAVYYCAARAETRYYTYNYWGQGTQVTVSS	high polyreactivity
QVQLVESGGGLVQAGGSLRLSCAASGSTFGRYAMGWYRQAPGKERELVAAISWSGGSTHYADSVKGRFTISRDNAKNTVYLQMNSLKPEDTAVYYCAAYTFYSYDYWGQGSQVTVSS	high polyreactivity
QVQLVESGGGLVQAGGSLRLSCAASGSTFRWYTMGWYRQAPGKERELVAAITASGGSTFYADSVKGRFTISRDNAKNTVYLQMNSLKPEDTAVYYCAAVNRPRPRRSDYWGQGTQVTVSS	high polyreactivity
QVQLVESGAGLVQAGGSLRLSCAASGSTFGSYTMGWYRQAPGKERELVAAINWSGGNTYYADSVKGRFTISRDTAKNTVYLQMNSLKPEDTAVYYCAAAFYIYGVEGDYWGQGTQVTVSS	low polyreactivity
QVQLVESGVGLVQAGGSLRLICAASGSTFYYYAMGWYRQAPGKEREFVAAISSSTGSTYYADSVKGRFTISRDNAKNTVYLQLNSLKPEDTAVYYCNALTWYTSQDYDYWGQGTQVTVSS	high polyreactivity
QVQLVESGGGLDQAGGSLRLSCADSGFTSDGYAKGSYTQAPGKEREFVADINSDGSTNYADSVKARFTISRDNAKNTVYLQLNSLIPEDSAVYYCAKDQAAYYLIPWYPLHDYWGQGTQVTLSS	low polyreactivity

// query Can you look up the measured polyreactivity (PSR sort gate) of `QVQHLESGGGLVQAGGSLRLSCAASAITFDHYAMGWYRQAPGKEREFVAAIDDIGGDTYYPDSVKGRFTSSRDNAKNNVYLQMNSVQPEDTAVYDCNADGEGADSDYEYWGQGNQVTVSS` for me?
// result low polyreactivity

// query Can you look up the measured polyreactivity (PSR sort gate) of `QVQLVESGGGLVQAGGSLRLSCAASGRTFGTYAMGWYRQAPGKERELVAAITGSGDRTYYADSVKGRFTISRDNAKNTVYLQMNSLKPEDTAVYYCAAYSDRSYGYWGQGTQVTVSS` for me?
// result low polyreactivity

// query Can you look up the measured polyreactivity (PSR sort gate) of `QVQLVESGGGLVQAGGSLRLSCAASGSTFAIYAMGWYRQAHGKERELVAAIRQRAGSTYYADSVKGRFTISRDNAKNTVYLQMNSLKPEDTAVYYCATATRPISRGYWGQGTQVTVSS` for me?
// result low polyreactivity

* * *

TEST SUMMARY: yeast display, Sf9 membrane polyspecificity reagent, FACS + sequencing; frameworks hold sequencing errors
QUANTITY: polyreactivity (PSR sort gate)

Sample records with polyreactivity (PSR sort gate):
QVQLLESGGGLVQAGGSLRLSCAASGSTFYSYAMGGYRQAPGKERELVAAISSSSGSTYYADSVKGRFTISRDNANNSVYLQMNSLKPEDTAVYYCNRGRRYSHKYDYWGQGTQVTVSS	high polyreactivity
QVQLVESGGGLVQAGGSLRLSCAASGSTFGPNTMGWYRQAPGKERELVAAITTRGGRTYYADSVKGRFTISRDNAKNTVYLQMNSLKPEDTAVYYCAASAPYYGRGGLVGYWGQGTQVTVSS	high polyreactivity
QVQLVESGGGLVQAGGSLRLSCAASGSTFYSNAMGWYRQAPGKERELVASISWSSGSTYYADSVKGRFTISRDNAKNTVYLQMNSLKPEDTAVYYCATDAGGPYRFGYWGQGTQVTVSS	low polyreactivity
QVQLVESGGGLVQAGGSLRLSCAASGRIFRSNAMGWYRQAPGKERELVAAISSNGGSTYYADSVKGRFTISRDNAKNPVYLQMNSLKPEDTAVYYCAARVYYPVRYGYWGQGTQVTVSS	high polyreactivity
QVQLVESGGGLVQAGGSLRLSCAASGSTFRSNAMGWYRQAPGKERELVAGISRRGGSTYYADSVTGRVTISRDNAKNTVYLQMNSLKPEDTAVDYCAASSRSFIRVYYWGQGTQVTVSS	high polyreactivity

// query Can you look up the measured polyreactivity (PSR sort gate) of `QVQLVESGGGLVQAGGSLRLSCAASGSTYALNAMGWYRQAPGKDRDLVDAISRRGGSTYYADSVKGRFTISRDNAKNTVYLQMNSLKPEDTAVYYCAARNQSQRTGYDFWGQGTQVTVSS` for me?
// result high polyreactivity

// query Can you look up the measured polyreactivity (PSR sort gate) of `QVQLVESGGGIVQAGGSLRISCAASGFIFSSYDMGWYRQAPGKERELVAAITWSGGSTYYADSVKARFTISRDNAKNTVYLHMNSLKPEDTAVYYCNAYPYYLVRNMDSWGQGTQVTVSS` for me?
// result high polyreactivity

// query Can you look up the measured polyreactivity (PSR sort gate) of `QVQRVESGGALVQAGGSLRLSCAASGRIFGGYAMGWYRQAPGKERELVAAISSRGGSTYYADSVKGRFTISRDNAKNTVYLQMNSLKPEDTAVYYCAADGRVKGWGQGTQVTVSS` for me?
// result high polyreactivity

// query Can you look up the measured polyreactivity (PSR sort gate) of `QVQLVESGGGLVQAGGSLRLTCAASGSIFYVNAMGWYRQAPGKERESVAGITGSGSRTYYADSVKGRFTISRDNAKNTVYLQMNSLKPEDTAVYYCARLTRTSRGLYDYWGQGTQVTVSS` for me?
// result high polyreactivity
